- targetUnderTest: T1, human CD137 displayed on yeast cells (human, UniProt Q07011 24-186, limits assumed)
- T1 construct: Yeast cells displaying human CD137 on their surface; also called human CD137 on the cell surface
- measurementDescription: flow cytometry on yeast cells displaying human CD137, PE anti-human Fc
attributeMeasured: masking efficiency (against parental TY21242) (fold)
Just the number please, in fold, no unit attached.

Some solved entries appear below for comparison.
What the record says about TY22598 (antibody, V domains shown, Full IgG4 from mammalian cells; peptide fused to the N-terminus of the light chain of TY21242) VH: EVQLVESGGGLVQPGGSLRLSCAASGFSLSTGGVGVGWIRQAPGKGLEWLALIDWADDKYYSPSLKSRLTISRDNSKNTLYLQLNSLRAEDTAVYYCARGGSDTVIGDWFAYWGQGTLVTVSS VL: EVGSYSNNFASCLWRHRSCADSGRSAGGGGSPLGLAGSGGSDIQLTQSPSSLSASVGDRVTITCRASQSIGSYLAWYQQKPGKAPKLLIYDASNLETGVPSRFSGSGSGTDFTLTISSLQPEDFATYYCQQGYYLWTFGQGTKVEIK : masking efficiency (against parental TY21242) is 30.5

Record TY22595 (antibody, V domains shown, Full IgG4 from mammalian cells; peptide fused to the N-terminus of the light chain of TY21242) VH: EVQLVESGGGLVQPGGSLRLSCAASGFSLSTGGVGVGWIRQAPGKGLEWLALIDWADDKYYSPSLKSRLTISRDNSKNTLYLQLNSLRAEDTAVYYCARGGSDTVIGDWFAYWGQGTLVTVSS VL: EVGSYNDYNYHCKWRPSRCHNSGRSAGGGGSPLGLAGSGGSDIQLTQSPSSLSASVGDRVTITCRASQSIGSYLAWYQQKPGKAPKLLIYDASNLETGVPSRFSGSGSGTDFTLTISSLQPEDFATYYCQQGYYLWTFGQGTKVEIK . Reported masking efficiency (against parental TY21242): 379

So, TY22596 (antibody, V domains shown, Full IgG4 from mammalian cells; peptide fused to the N-terminus of the light chain of TY21242) VH: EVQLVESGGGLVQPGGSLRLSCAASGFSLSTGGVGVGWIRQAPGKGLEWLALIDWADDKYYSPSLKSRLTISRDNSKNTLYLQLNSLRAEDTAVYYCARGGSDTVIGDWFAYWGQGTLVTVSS VL: EVGSYYHDYDDCRVLPRRCFNSGRSAGGGGSPLGLAGSGGSDIQLTQSPSSLSASVGDRVTITCRASQSIGSYLAWYQQKPGKAPKLLIYDASNLETGVPSRFSGSGSGTDFTLTISSLQPEDFATYYCQQGYYLWTFGQGTKVEIK ? Its masking efficiency (against parental TY21242) was 20.8

Proceeding to the next binder to report its masking efficiency (against parental TY21242).
Lab note: measured masking efficiency (against parental TY21242) of TY21242 (antibody, V domains shown, also called parental antibody TY21242; parental CD137 antibody) VH: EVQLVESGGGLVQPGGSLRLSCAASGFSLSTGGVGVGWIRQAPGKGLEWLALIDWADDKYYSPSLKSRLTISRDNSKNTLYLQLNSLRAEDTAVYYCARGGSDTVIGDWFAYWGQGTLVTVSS VL: DIQLTQSPSSLSASVGDRVTITCRASQSIGSYLAWYQQKPGKAPKLLIYDASNLETGVPSRFSGSGSGTDFTLTISSLQPEDFATYYCQQGYYLWTFGQGTKVEIK was 1

Entry source: patent US20210207126A1
